# System: isolated mouse hearts
# testDescription: Effect on isolated hearts according to the Langendorff method (Lgdff)
quantityName: pEC50
When answering, recall that pEC50 equals minus log10 of the concentration in mol/L, and write that number alone.

COc1cccc2[nH]c(CCCN(C)CC[C@@]3(OC(=O)CC(F)(F)F)C[C@@H]4CCC[C@H]3c3ccccc34)nc12 [Example 13B] = 8.22
CC(C)C(=O)O[C@@]1(CCN(C)CCCc2nc3ccccc3[nH]2)C[C@H]2CC[C@@H]1c1ccccc12 (relative stereo) = 7.38
CC(C)C(=O)O[C@@]1(CCN(C)CCCc2nc3ccccc3[nH]2)C[C@H]2CC[C@@H]1c1cc(F)c(F)cc12 (relative stereo) = 7.52

// moving on: another record for pEC50
Summary for this compound, CC(C)C(=O)OC1(CCN(C)CCCc2nc3ccccc3[nH]2)CC2CCCC1c1ccccc12 (stereo not shown) [Example 11A] : pEC50 is 7.66
